test system: NCI/ADR-RES ovarian; assay: NCI-60 one-dose screen, 48 h (100 = growth as untreated, 0 = no growth, -100 = all killed); details: 10 µM unless noted
Compounds without any hit were thinned out: in the full panel of roughly 83,000, 20% have a hit.
In this section we review reported growth values for a set of compounds.
Express the result in % but write the number alone.

COMPOUND | SYSTEM UNDER TEST | ENDPOINT | REPORTED
Cc1nn(-c2cccc(Cl)c2)c(C)c1N=Nc1ccc(Br)cc1 | NCI/ADR-RES ovarian | growth | 105
C=CCOC(=O)C1=C(C)NC2=C(C(=O)CC(C)(C)C2)C1c1ccc(OC)cc1 (stereo not given) | NCI/ADR-RES ovarian | growth | 103
O=C(Nc1ccc([N+](=O)[O-])cc1)c1cc2ccccc2cc1O | NCI/ADR-RES ovarian | growth | -9.03
Cc1cc(Nc2c3ccccc3nc3ccccc23)ccc1NS(C)(=O)=O | NCI/ADR-RES ovarian | growth | 57.7
COc1cc(OC)c2sc(-c3ccc(-n4cncc4-c4ccc(OC)c(N)c4)cc3)nc2c1 | NCI/ADR-RES ovarian | growth | 77.4
COc1ccc(N=C2CSc3nnc(-c4cc(F)c(Cl)cc4Cl)n3N2)cc1 | NCI/ADR-RES ovarian | growth | 9.18

Read the next record carefully.
Complete the entry with growth for OC(CCCCCCCCC(O)CN1CCc2ccccc2C1)CN1CCc2ccccc2C1 (stereo not given)
98.1
